- System: NCI-H226
- procedure.details: Anticancer activity against human NCI-H226 cells assessed as cell growth at 10^-5 M after 48 hrs by SRB assay
- Format: functional
- run.parameters: NCI-H226, 48 h, read-out: Activity
Outcome label depends on growth at 10 µM relative to 90%: at/above gives Satisfied, below gives Not satisfied.

# smiles.structure, qualitative.label
data = [
    ("COc1cccc(-c2nc3sccn3c2-c2ccnc(NCCNC(=O)Nc3ccccc3)n2)c1", "Satisfied"),
    ("O=C(NCCNc1nccc(-c2c(-c3cccc(O)c3)nc3sccn23)n1)Nc1ccccc1", "Satisfied"),
    ("COc1cccc(-c2nc3sccn3c2-c2ccnc(NCCNC(=O)c3ccc(N4CCOCC4)c(C(F)(F)F)c3)n2)c1", "Not satisfied"),
    ("COc1cccc(-c2nc3sccn3c2-c2ccnc(NCCNC(=O)c3ccccc3)n2)c1", "Not satisfied"),
    ("O=C(NCCNc1nccc(-c2c(-c3cccc(O)c3)nc3sccn23)n1)c1cc(C(F)(F)F)cc(C(F)(F)F)c1", "Satisfied"),
    ("O=C(NCCNc1nccc(-c2c(-c3cccc(O)c3)nc3sccn23)n1)Nc1cc(C(F)(F)F)cc(C(F)(F)F)c1", "Satisfied"),
    ("O=C(NCCNc1nccc(-c2c(-c3cccc(O)c3)nc3sccn23)n1)c1ccccc1O", "Not satisfied"),
    ("COc1cccc(-c2nc3sccn3c2-c2ccnc(NCCNC(=O)c3ccccc3O)n2)c1", "Satisfied"),
    ("O=C(NCCNc1nccc(-c2c(-c3cccc(O)c3)nc3sccn23)n1)c1ccccc1", "Not satisfied"),
    ("COc1cccc(-c2nc3sccn3c2-c2ccnc(NCCNC(=O)c3cc(N4CCOCC4)cc(C(F)(F)F)c3)n2)c1", "Satisfied"),
    ("O=C(NCCNc1nccc(-c2c(-c3cccc(O)c3)nc3sccn23)n1)c1ccc(N2CCOCC2)c(C(F)(F)F)c1", "Not satisfied"),
    ("O=C(NCCNc1nccc(-c2c(-c3cccc(O)c3)nc3sccn23)n1)Nc1cccc(C(F)(F)F)c1", "Satisfied"),
    ("O=C(NCCNc1nccc(-c2c(-c3cccc(O)c3)nc3sccn23)n1)c1cc(N2CCOCC2)cc(C(F)(F)F)c1", "Satisfied"),
    ("COc1cccc(-c2nc3sccn3c2-c2ccnc(NCCNC(=O)Nc3cccc(C(F)(F)F)c3)n2)c1", "Satisfied"),
    ("COc1cccc(-c2nc3sccn3c2-c2ccnc(NCCNC(=O)c3cc(C(F)(F)F)cc(C(F)(F)F)c3)n2)c1", "Satisfied"),
]
